Target: Serine/threonine-protein kinase VRK1 (Homo sapiens) (UniProt Q99986)
Sequence (whole entry): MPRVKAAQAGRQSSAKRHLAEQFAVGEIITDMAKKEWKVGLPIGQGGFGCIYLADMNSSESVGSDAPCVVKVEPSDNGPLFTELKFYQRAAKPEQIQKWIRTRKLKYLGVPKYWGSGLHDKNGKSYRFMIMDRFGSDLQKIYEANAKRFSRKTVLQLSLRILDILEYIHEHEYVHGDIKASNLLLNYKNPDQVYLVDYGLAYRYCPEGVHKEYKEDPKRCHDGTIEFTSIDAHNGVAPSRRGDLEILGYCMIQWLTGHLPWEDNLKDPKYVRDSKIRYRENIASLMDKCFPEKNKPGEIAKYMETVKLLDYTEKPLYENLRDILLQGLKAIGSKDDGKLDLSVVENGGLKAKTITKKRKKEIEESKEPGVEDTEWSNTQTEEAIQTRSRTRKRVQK
Property Label: ΔTm
The reply must contain the numeric value and, after it, the unit.

Which value of ΔTm has been reported for O=C(O)c1cc(NCc2cc(O)ccc2O)ccc1O in the records?
-0.2 °C

Which value of ΔTm has been reported for O=S(=O)(NCCNC/C=C/c1ccc(Br)cc1)c1cccc2cnccc12 in the records?
-0.3 °C

New cases:
Which value of ΔTm has been reported for Nc1nc(Nc2ccc(S(N)(=O)=O)cc2)nn1C(=S)Nc1c(F)cccc1F in the records?
1.9 °C

Which value of ΔTm has been reported for Cc1nc2sccn2c(=O)c1CCN1CCC(=C(c2ccccc2)c2ccc(F)cc2)CC1 in the records?
0.3 °C

Which value of ΔTm has been reported for O=c1cc(-c2ccc(O)cc2)oc2cc(O)cc(O)c12 in the records?
0.2 °C

====

Molecular target: Dual specificity mitogen-activated protein kinase kinase 4 (Homo sapiens, UniProt P45985)
Sequence (P45985 whole entry): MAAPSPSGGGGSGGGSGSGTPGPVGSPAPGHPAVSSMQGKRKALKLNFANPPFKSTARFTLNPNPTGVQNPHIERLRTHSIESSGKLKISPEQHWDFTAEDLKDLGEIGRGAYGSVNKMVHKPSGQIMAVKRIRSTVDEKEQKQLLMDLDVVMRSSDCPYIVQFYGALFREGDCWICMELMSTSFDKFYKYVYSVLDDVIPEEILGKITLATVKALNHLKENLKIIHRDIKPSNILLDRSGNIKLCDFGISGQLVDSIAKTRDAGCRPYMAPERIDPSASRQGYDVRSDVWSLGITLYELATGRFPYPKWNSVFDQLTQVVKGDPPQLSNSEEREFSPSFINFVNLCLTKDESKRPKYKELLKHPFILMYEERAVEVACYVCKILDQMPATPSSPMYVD
Experiment: Inhibition of MKK4
Property Label: IC50

Form field: IC50 recorded for N#C/C(=C(/N)Sc1ccc(N)cc1)c1ccccc1C(F)(F)F with Dual specificity mitogen-activated protein kinase kinase 4 (Homo sapiens, UniProt P45985) (enter value)
> 10 µM

New cases:
Form field: IC50 recorded for C=CNC#N with Dual specificity mitogen-activated protein kinase kinase 4 (Homo sapiens, UniProt P45985) (enter value)
> 1 µM

====

Target: Nitric oxide synthase, inducible (Homo sapiens, UniProt P35228)
Sequence (P35228 whole entry): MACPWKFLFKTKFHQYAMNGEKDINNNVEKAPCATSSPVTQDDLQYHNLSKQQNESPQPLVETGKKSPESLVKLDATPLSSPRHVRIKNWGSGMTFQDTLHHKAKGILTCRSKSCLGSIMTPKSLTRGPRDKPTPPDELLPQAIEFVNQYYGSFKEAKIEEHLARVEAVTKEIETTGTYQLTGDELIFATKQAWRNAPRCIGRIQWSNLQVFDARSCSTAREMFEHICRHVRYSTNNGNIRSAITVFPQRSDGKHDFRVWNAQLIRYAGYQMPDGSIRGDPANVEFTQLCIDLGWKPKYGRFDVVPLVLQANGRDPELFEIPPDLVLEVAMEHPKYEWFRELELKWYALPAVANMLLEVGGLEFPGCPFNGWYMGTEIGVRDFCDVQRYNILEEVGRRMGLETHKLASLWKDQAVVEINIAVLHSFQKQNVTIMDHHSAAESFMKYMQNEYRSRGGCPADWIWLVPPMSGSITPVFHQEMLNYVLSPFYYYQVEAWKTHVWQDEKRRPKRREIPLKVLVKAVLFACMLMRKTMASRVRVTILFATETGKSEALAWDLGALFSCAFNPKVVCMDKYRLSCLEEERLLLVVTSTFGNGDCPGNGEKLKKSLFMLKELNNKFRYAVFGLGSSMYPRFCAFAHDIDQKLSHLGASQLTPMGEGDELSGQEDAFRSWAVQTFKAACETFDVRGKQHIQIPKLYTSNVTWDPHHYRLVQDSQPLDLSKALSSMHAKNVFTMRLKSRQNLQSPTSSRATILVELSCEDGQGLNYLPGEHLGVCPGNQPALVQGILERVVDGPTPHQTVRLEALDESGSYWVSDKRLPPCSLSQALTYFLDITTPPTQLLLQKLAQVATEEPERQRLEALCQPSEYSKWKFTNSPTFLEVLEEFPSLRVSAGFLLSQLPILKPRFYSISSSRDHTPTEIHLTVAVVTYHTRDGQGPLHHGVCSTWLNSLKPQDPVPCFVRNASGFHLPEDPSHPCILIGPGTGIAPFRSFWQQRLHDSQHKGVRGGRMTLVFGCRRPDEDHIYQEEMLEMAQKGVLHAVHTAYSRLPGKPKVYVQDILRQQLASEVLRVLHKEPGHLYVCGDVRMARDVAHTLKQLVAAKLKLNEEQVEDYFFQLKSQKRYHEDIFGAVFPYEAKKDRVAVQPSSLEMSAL
Assay: Inhibition of nitric oxide synthase in […]
Property Label: pIC50
pIC50 here: minus log base 10 of the concentration, concentration in moles per litre.

Form field: pIC50 recorded for COc1cc(/C=C/C(=O)CC(=O)/C=C/c2ccc(O)c(OC)c2)ccc1O with Nitric oxide synthase, inducible (Homo sapiens, UniProt P35228) (enter value)
5.22

Attribution: ChEMBL document CHEMBL1145498
